tested on: HepG2; test: GSK_TCMDC: Percent inhibition of human HepG2 cell line. Test compounds present at 10uM.; format: functional
Observed Property: Inhibition (%)

> print(dat)
                                query.smiles  test.result
 1          N=C(N)NN=CC(=O)Nc1ccc(Cl)c(Cl)c1            0
 2  Cl.O=C(NCCCCN1CCC(O)(c2ccc(Cl)cc2)CC1)c1ccc(Br)cc1           41
 3  COc1cc2nc(N3CCC(CNC(=O)c4ccc(-c5ccc(C(=O)N(C)C)cc5)c(OCCO)c4)CC3)nc(N)c2cc1OC           10
 4            Cn1c(Sc2ncnc3sccc23)nc2ccccc21            0
 5  Cc1ccc(NC(=S)NC2CCN(CCCCCNC(=O)/C=C/c3ccc(Cl)c(Cl)c3)CC2)cc1Cl           45
 6  O=C(Nc1ccc(OC2CCN(Cc3ccc(F)cc3)CC2)c(Cl)c1)c1ccco1.O=C(O)C(F)(F)F            2
 7       COc1cccc(C=Cc2nc(=O)c3ccccc3o2)c1OC            0
 8  CC[C@H](C)[C@H](NC(=O)[C@H](CC1CCCCC1)[C@H](CC)N(O)C=O)C(=O)Nc1ccccn1           14
 9  O=C(O)C(F)(F)F.O=[N+]([O-])c1cnc(Nc2ccccc2O)nc1Nc1ccccc1O           24
10  O=C(N[C@@H](CC1CCCCC1)C(=O)NCCN1CCCC1)c1ccc(O)c(-c2ccc(Cl)c(Cl)c2)c1           16
11  Cc1cccc(-c2nn(-c3ccccc3)cc2C(=O)Nc2nnc(C)o2)c1           38
12  Cl.NC(=O)c1ccccc1Nc1nc(Nc2cccc(N3CCN(CCO)CC3)c2)ncc1Cl           93
13  Cc1[nH]c(C)c(-c2ccc(OCc3ccc(F)cc3)cc2)c(=O)c1Cl            0

----------
tested on: Plasmodium falciparum; test: GSK_TCMDC: Inhibition of Plasmodium falciparum Dd2 in whole red blood cells, using parasite LDH activity as an index of growth. Test compounds present at 2uM; assay type: functional
Observed Property: Inhibition (%)

> print(dat)
                                    compound  test.result
 1  CCc1c(C(=O)NC2CCC(N3CCC(c4ccccc4OC)CC3)CC2)[nH]c2ccc(Br)cc12 (configuration not stated)           98
 2  N#Cc1ccc(NC(=O)c2ccc(C(=O)NCCCCN3CCC(c4ccc5c(c4OCCOC4CCCCO4)CCCC5)CC3)cc2)cc1 (configuration not stated)           97
 3  CCCCCCCCCC(=O)NCC1CC(Br)=NO1 (configuration not stated)           42
 4  Cc1ccccc1C1CCN(C2CCC(NC(=O)/C=C/c3cccc(F)c3F)CC2)CC1 (configuration not stated)           45
 5  Cc1cccc2nc(-c3ccc(-c4ccc(CN5CCCCC5)cc4)s3)[nH]c12.O=C(O)C(F)(F)F           87
 6  CCCCCCN1CCN(Cc2cccc(NC(=O)c3cc4ccccc4o3)c2)CC1.O=C(O)C(F)(F)F           83
 7  Cn1nccc1C(=O)NCCNCc1ccc(-c2ccc(-c3nc4cc(C(F)(F)F)ccc4[nH]3)s2)cc1.O=C(O)C(F)(F)F           99
 8  CC(Cc1ccc(OCCN2CCN(c3ccccc3)CC2)cc1)NCC(O)c1cccc(Cl)c1F.Cl (configuration not stated)           56
 9  CCNc1cc(C)nc(Nc2ccc(NC(=O)Cc3ccc(OC)cc3)cc2)n1           47
10  O=C(Nc1cc(Cl)cc(Cl)c1)c1cc(Cl)c(=O)n(Cc2ccc(Cl)cc2)c1           57
11     FC(F)(F)c1ccc2c(C=Cc3ccncc3)c[nH]c2c1           76
12  Cc1cc(N[C@@H](Cc2ccccc2)C(=O)NCc2cccs2)nc(NCCc2ccccc2)n1.O=C(O)C(F)(F)F           61
13           Cc1cc2c3c(N)nc(N)nc3ccc2n1C(C)C            0
14  Br.CC1(C)NC(N)=NC(=N)N1OCCCNC(=O)c1ccc(C(=O)NCCCON2C(=N)N=C(N)NC2(C)C)cc1           96
15  Nc1ncc(-c2cn[nH]c2)cc1-c1nc2ccc(Cl)cc2[nH]1          100
16  O=C(O)C(F)(F)F.OCC1CCCCN1Cc1cccc(-c2cccc(-c3nc4ccccc4[nH]3)c2)c1 (configuration not stated)            4
17  Cc1nc2nc(N)nc(N)c2c(C)c1Cc1ccc(Cl)cc1.Cl           22
18  Cc1cccc(-c2ccc3c(c2)CC(NCc2cccc(-n4ccnc4)c2)C3)c1 (configuration not stated)           49
19  COc1cc(NCCCNC(=O)c2cc3c(Cl)cc(Cl)cc3[nH]2)nc2ccccc12          100
20     Nc1ccc(-c2ccc(NC(=O)Nc3ccccc3)cc2)cn1           93
21  CN1CCN(C(C(=O)NCc2cc(Cl)cc(Cl)c2)c2ccccc2-c2ccsc2)CC1 (configuration not stated)           80
22  COc1cc(Cc2cnc(N)nc2N)ccc1OCc1ccc(F)c(F)c1           31
23  O=C(NCCN1CCCCC1)c1cc2cc(-c3ccccc3)ccc2n1S(=O)(=O)c1ccccc1            0
24  c1ccc(-c2cc(NCc3cccc4ccccc34)c3[nH]ncc3n2)cc1            5
25  COc1cc(NC(=O)N2CCc3ccc(OCCN(C(C)C)C(C)C)cc32)cc(C(F)(F)F)c1.O=C(O)C(F)(F)F           97
26  CS(=O)(=O)Nc1cccc(-c2cnc3[nH]cc(-c4ccc(CN)cc4)c3c2)c1           95
27  CC(C)(C)c1ccc(C(=O)Nc2cccc(Nc3c(C(=O)NCc4cccc(C(F)(F)F)c4)cnc4c(O)cccc34)c2)cc1.O=C(O)C(F)(F)F           79
